- TEST_PROTOCOL: Highest frequency of moderate liver toxicity observed during clinical trials, expressed as a percentage. [column '% BIOL' in source]
- ASSAY_CONDITIONS: human
EXPERIMENTAL_READOUT: Hepatotoxicity (moderate) (%)

>  <COMPOUND>
COc1cc(C(=O)NCc2ccc(OCCN(C)C)cc2)cc(OC)c1OC [TRIMETHOBENZAMIDE]

>  <EXPERIMENTAL_READOUT>
Hepatotoxicity (moderate)

>  <EXPERIMENTAL_VALUE>
0

$$$$
>  <COMPOUND>
COCC1=C(C(=O)OC(C)OC(=O)OC(C)C)N2C(=O)[C@@H](NC(=O)/C(=N\OC)c3csc(N)n3)[C@H]2SC1 (stereo partly specified)

>  <EXPERIMENTAL_READOUT>
Hepatotoxicity (moderate)

>  <EXPERIMENTAL_VALUE>
7.1

$$$$
>  <COMPOUND>
Nc1nc(F)nc2c1ncn2[C@@H]1O[C@H](CO)[C@@H](O)[C@@H]1O

>  <EXPERIMENTAL_READOUT>
Hepatotoxicity (moderate)

>  <EXPERIMENTAL_VALUE>
42.9

$$$$
>  <COMPOUND>
OC[C@H]1O[C@@H](n2cnc3c2NC=NC[C@H]3O)C[C@@H]1O

>  <EXPERIMENTAL_READOUT>
Hepatotoxicity (moderate)

>  <EXPERIMENTAL_VALUE>
81.3

$$$$
>  <COMPOUND>
Cc1cc2c(cc1CC(=O)c1sccc1S(=O)(=O)Nc1onc(C)c1Cl)OCO2

>  <EXPERIMENTAL_READOUT>
Hepatotoxicity (moderate)

>  <EXPERIMENTAL_VALUE>
0

$$$$
>  <COMPOUND>
O=C(O)CCCc1ccc(N(CCCl)CCCl)cc1

>  <EXPERIMENTAL_READOUT>
Hepatotoxicity (moderate)

>  <EXPERIMENTAL_VALUE>
5.3

$$$$
